# System name: HLA-Cw0702 (human)
Measurement kind: Ki (nM)
Number only, in nM; omit the unit.

query: Fill in Ki for record YRRCRASGVL (modifications not checked)
result: 83

query: Report Ki, nothing else, for this binder: TYSTYGKFL (modifications not checked)
result: 239

query: Specify reported Ki for the binder shown: DQRPYCWHY (modifications not checked)
result: 710

query: Answer with the recorded Ki of YYRGLDVSVI (modifications not checked) only.
result: 87

Cited source: patent US20060093617A1
